Listed below are compounds with Ki for Type-2 angiotensin II receptor (Rattus norvegicus), each taken from published literature.

Use the examples below as a reference point.
[
  {
    "Compound": "CCN1CCCC1CNC(=O)c1cc(S(=O)(=O)CC)c(N)cc1OC (stereo not given)",
    "Ki": "> 10 µM"
  },
  {
    "Compound": "CN1CCN(C2=c3ccccc3=Nc3ccc(Cl)cc3N2)CC1",
    "Ki": "> 10 µM"
  },
  {
    "Compound": "CCCc1nc(C(F)(F)C(F)(F)F)c(C(=O)O)n1Cc1ccc(-c2ccccc2-c2nnn[nH]2)cc1",
    "Ki": "5.77 µM"
  },
  {
    "Compound": "CC(C)(C)c1ccc(NC(=O)N2CCN(c3ncccc3Cl)CC2)cc1",
    "Ki": "> 10 µM"
  },
  {
    "Compound": "CCCCc1nc(Cl)c(C(=O)O)n1Cc1ccc(-c2ccccc2-c2nn[nH]n2)cc1",
    "Ki": "> 10 µM"
  },
  {
    "Compound": "O=C(CCCN1CCC(O)(c2ccc(Cl)cc2)CC1)c1ccc(F)cc1",
    "Ki": "> 10 µM"
  },
  {
    "Compound": "CCCc1nc(-n2cccc2C(=O)C(F)(F)F)c(C(=O)O)n1Cc1ccc(-c2ccccc2-c2nn[nH]n2)cc1",
    "Ki": "> 10 µM"
  },
  {
    "Compound": "CCCCc1ncc(/C=C(\\Cc2cccs2)C(=O)O)n1Cc1ccc(C(=O)O)cc1",
    "Ki": "> 10 µM"
  }
]

Given the entry CCOc1nc2cccc(C(=O)O)c2n1Cc1ccc(-c2ccccc2-c2nnn[nH]2)cc1 , report its measured Ki.
> 10 µM

// same read-out, input: CCc1nn(Cc2ccc(-c3ccccc3-c3nnn[nH]3)cc2)c(=NC(=O)C2=C(C(=O)O)CCC2)s1
9.36 µM
